B1: TPR 5TU (parent)
chain: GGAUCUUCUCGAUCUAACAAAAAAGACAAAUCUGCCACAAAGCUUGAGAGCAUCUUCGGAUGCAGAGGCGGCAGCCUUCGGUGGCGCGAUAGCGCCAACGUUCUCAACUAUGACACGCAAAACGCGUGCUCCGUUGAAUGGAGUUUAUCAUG

Variants of: B1
Procedure Text: polymerase ribozyme fitness, log enrichment relative to wild type (log ratio); higher = more active; in vitro selection for triplet polymerase activity
Variants at the floor of the assay were thinned out.
Listed next: entries and their corresponding polymerase ribozyme fitness (log ratio).
Give the figure by itself; no unit, no explanation.

C38G G80C C99G C116U: -0.78

Below: the item to evaluate.
Consider the variant shown here: G58C C87U U135A What is its recorded polymerase ribozyme fitness (log ratio)?
-2.15

Ref: the RNAGym collection of RNA variant scans (doi:10.1073/pnas.2313332121)
